- procedure-text: in vivo
- assay-conditions: female, 129sv DHP-1 knockout, mouse, sc, 50 mg/kg

>  <compound>
NC(C(=O)N[C@@H]1C(=O)N2C(C(=O)O)=C(CSc3cccc[n+]3[O-])CS[C@H]12)c1ccc(O)cc1 (some centres unmarked) [TBBL-0000652]

>  <Cmax>
8320 ng/mL

$$$$
>  <compound>
CN(C)C(=S)SCC1=C(C(=O)O)N2C(=O)[C@@H](NC(=O)Cc3cccs3)[C@H]2SC1 [TBBL-0000009]

>  <Cmax>
380 ng/mL

$$$$
>  <compound>
O=C(Cc1ccc(C2=NCCN2)cc1)N[C@@H]1C(=O)N2C(C(=O)O)=C(CSc3nncs3)CS[C@H]12 [TBBL-0000316]

>  <Cmax>
17500 ng/mL

$$$$
>  <compound>
C[C@@H](O)[C@H]1C(=O)N2C(C(=O)O)=C(S[C@@H]3CN[C@H](C(=O)N(C)C)C3)[C@H](C)[C@H]12 [Meropenem, reference compound]

>  <Cmax>
724 ng/mL

$$$$
>  <compound>
C=CC1=C(C(=O)O)N2C(=O)[C@@H](NC(=O)/C(=N\O)c3csc(N)n3)[C@H]2SC1 [Cefdinir, reference compound]

>  <Cmax>
8730 ng/mL

$$$$
>  <compound>
O=C(CCCC(NC(=O)c1ccc(Cl)cc1Cl)C(=O)O)N[C@@H]1C(=O)N2C(C(=O)O)=C(CSc3cccc[n+]3[O-])CS[C@H]12 (some centres unmarked) [TBBL-0000552]

>  <Cmax>
6190 ng/mL

$$$$
>  <compound>
O=C(O)C1=C(CSc2cccc[n+]2[O-])CS[C@@H]2[C@H](NC(=O)/C(=N\Oc3ccccc3)c3ccco3)C(=O)N12 [TBBL-0000005]

>  <Cmax>
4130 ng/mL

$$$$
>  <compound>
O=C(Cc1cccs1)N[C@@H]1C(=O)N2C(C(=O)O)=C(CSc3cccc[n+]3[O-])CS[C@H]12 [TBBL-0000001]

>  <Cmax>
27800 ng/mL

$$$$

====

Reported Vd values are given for each entry in this list.
- procedure-text: in vivo
- assay-conditions: female, CD-1, mouse, iv, 5 mg/kg

>  <compound>
O=C(CCCC(NC(=O)c1ccc(Cl)cc1Cl)C(=O)O)N[C@@H]1C(=O)N2C(C(=O)O)=C(CSc3cccc[n+]3[O-])CS[C@H]12 (some centres unmarked)

>  <Vd (L/kg)>
0.74

$$$$
>  <compound>
O=C(Cc1ccc(C2=NCCN2)cc1)N[C@@H]1C(=O)N2C(C(=O)O)=C(CSc3nncs3)CS[C@H]12

>  <Vd (L/kg)>
0.11

$$$$
>  <compound>
CN(C)C(=S)SCC1=C(C(=O)O)N2C(=O)[C@@H](NC(=O)Cc3cccs3)[C@H]2SC1

>  <Vd (L/kg)>
0.18

$$$$
>  <compound>
O=C(O)C1=C(CSc2cccc[n+]2[O-])CS[C@@H]2[C@H](NC(=O)/C(=N\Oc3ccccc3)c3ccco3)C(=O)N12

>  <Vd (L/kg)>
0.23

$$$$
>  <compound>
O=C(Cc1cccs1)N[C@@H]1C(=O)N2C(C(=O)O)=C(CSc3cccc[n+]3[O-])CS[C@H]12

>  <Vd (L/kg)>
0.32

$$$$

====

- procedure-text: in vivo
- assay-conditions: female, 129sv DHP-1 knockout, mouse, sc, 300 mg/kg

>  <compound>
C[C@@H](O)[C@H]1C(=O)N2C(C(=O)O)=C(S[C@@H]3CN[C@H](C(=O)N(C)C)C3)[C@H](C)[C@H]12 [Meropenem, reference compound]

>  <AUC(0-t) / ng·h/mL>
2000

$$$$
